The reported numbers originate from PubChem BioAssay.

Tested on: Fibrinogen (Alexa647-labelled)
Protocol Description: fibrinogen binders on compound microarrays, profiling panel, artefact control for SMM control-protein annotation, biochemical, small-molecule microarray, 635/667 nm fluorescence (AID 1131);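 also: z-score merges 667 nm fluorescence with per-spot signal-to-noise over triplicate slides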
Condition: fibrinogen-A647 binding fluorescence, higher = more signal
Listed here are compounds together with their documented composite z-score.
Measurement Kind: composite z-score

[[record]]
compound = "CCCC=C(CCC)[C@@H](NC(=O)Oc1ccc(F)cc1)c1ccc(C(=O)OC)cc1"
tested_on = "Fibrinogen (Alexa647-labelled)"
assay_value = 0.906

[[record]]
compound = "CCOc1cc(C(O)C2C=CC3C(=O)N(c4ccccc4)C(=O)C3N2Nc2ccccc2)ccc1O (stereo not drawn)"
tested_on = "Fibrinogen (Alexa647-labelled)"
assay_value = 0.896

[[record]]
compound = "CN(C)CCCNC(=O)[C@@]1(c2ccc([N+](=O)[O-])cc2)CC(=O)N(C2CCCCC2)[C@@H]1c1ccc(CO)cc1"
tested_on = "Fibrinogen (Alexa647-labelled)"
assay_value = 0.874


----------
# composite z-score values compiled below
Tested On: Left-right determination factor 2 (Homo sapiens) (UniProt O00292)
Sequence (O00292 whole entry, looked up): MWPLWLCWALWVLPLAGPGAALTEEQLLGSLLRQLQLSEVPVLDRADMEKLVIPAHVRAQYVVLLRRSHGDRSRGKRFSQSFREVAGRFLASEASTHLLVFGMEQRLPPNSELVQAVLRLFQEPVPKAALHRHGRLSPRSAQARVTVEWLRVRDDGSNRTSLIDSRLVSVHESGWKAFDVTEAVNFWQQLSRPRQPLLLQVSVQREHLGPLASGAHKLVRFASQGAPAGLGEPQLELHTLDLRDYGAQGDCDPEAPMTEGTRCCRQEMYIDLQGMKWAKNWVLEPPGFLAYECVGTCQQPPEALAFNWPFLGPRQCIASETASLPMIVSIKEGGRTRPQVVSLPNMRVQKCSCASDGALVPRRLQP
Protocol Description: LEFTY2 binders on small-molecule microarrays, primary screen, biochemical, small-molecule microarray, 635 nm fluorescence scan (AID 1110)
Condition: LEFTY2 binding, higher = more signal
Measurement Kind: composite z-score

[[record]]
compound = "COc1cc2c(cc1OC)CN(C(=O)[C@H]1[C@@H]3C(=O)O[C@@H](c4ccccc4)[C@@H](c4ccccc4)N3[C@@H](c3ccc(O)cc3)[C@]13C(=O)Nc1ccc(C#CCNC(N)=O)cc13)CC2"
measurement_kind = "composite z-score"
assay_value = 0.264

[[record]]
compound = "COc1ccc(COC2OC[C@]3(C)[C@H]4C5=C(CN3C(=O)OC(C)(C)C)[C@H](C)C(CO)C(CO)C5CC[C@@H]24)cc1 (some centres not stated)"
measurement_kind = "composite z-score"
assay_value = -0.877

[[record]]
compound = "CCOC(=O)C1=CCC(c2ccccc2)N(S(=O)(=O)CC[Si](C)(C)C)C1 (configuration not stated)"
measurement_kind = "composite z-score"
assay_value = -0.262

[[record]]
compound = "CC(C)(C)OC(=O)CC[C@@]1(C(=O)NCCN2CCOCC2)N=C(c2ccc(OCCCO)cc2)O[C@@H]1c1ccccc1N=[N+]=[N-]"
measurement_kind = "composite z-score"
assay_value = 0.609

[[record]]
compound = "CN1C(=O)C2C=CC(C(O)c3cc(C(F)(F)F)cc(C(F)(F)F)c3)N(N3CCCCC3)C2C1=O (configuration not stated)"
measurement_kind = "composite z-score"
assay_value = -0.599

[[record]]
compound = "C=CCNC(=O)[C@@H]1[C@H]2C(=O)O[C@H](c3ccccc3)[C@H](c3ccccc3)N2[C@H](c2ccccc2OCCO)[C@@]12C(=O)N(C(=O)OCCOC)c1ccc(C#CCNC(N)=O)cc12"
measurement_kind = "composite z-score"
assay_value = 0.213

[[record]]
compound = "[N-]=[N+]=NCc1ccccc1[C@@H]1OC(c2ccc(OCCCO)cc2)=N[C@]1(Cc1ccccc1N=[N+]=[N-])C(=O)N1CCOCC1"
measurement_kind = "composite z-score"
assay_value = 0.404

[[record]]
compound = "COc1ccc(CCNC(=O)[C@@]2(Sc3ccc(C)cc3)CC(=O)N(C3CCCCC3)[C@@H]2c2ccc(CO)cc2I)cc1"
measurement_kind = "composite z-score"
assay_value = 0.0072

[[record]]
compound = "C=C[C@H](COC(C)=O)N(C(=O)OC(C)(C)C)S(=O)(=O)c1ccc(Br)cc1"
measurement_kind = "composite z-score"
assay_value = 0.467

[[record]]
compound = "COc1ccc(NN2C(C(O)c3ccc([N+](=O)[O-])cc3)C=CC3C(=O)N(C4CCCCC4)C(=O)C32)cc1 (configuration not stated)"
measurement_kind = "composite z-score"
assay_value = -0.0693

[[record]]
compound = "C#CCN(Cc1ccccc1Br)C(/C=C/c1ccccc1)CO (configuration not stated)"
measurement_kind = "composite z-score"
assay_value = -0.362

[[record]]
compound = "O=C1NC(=O)C2C1C=CC(C(O)c1ccccc1)N2Nc1ccc(Cl)cc1Cl (configuration not stated)"
measurement_kind = "composite z-score"
assay_value = 0.628

